# ASSAY_SYSTEM: Full-length human Chk1 protein (Homo sapiens, UniProt O14757)
# Sequence (O14757 1-476): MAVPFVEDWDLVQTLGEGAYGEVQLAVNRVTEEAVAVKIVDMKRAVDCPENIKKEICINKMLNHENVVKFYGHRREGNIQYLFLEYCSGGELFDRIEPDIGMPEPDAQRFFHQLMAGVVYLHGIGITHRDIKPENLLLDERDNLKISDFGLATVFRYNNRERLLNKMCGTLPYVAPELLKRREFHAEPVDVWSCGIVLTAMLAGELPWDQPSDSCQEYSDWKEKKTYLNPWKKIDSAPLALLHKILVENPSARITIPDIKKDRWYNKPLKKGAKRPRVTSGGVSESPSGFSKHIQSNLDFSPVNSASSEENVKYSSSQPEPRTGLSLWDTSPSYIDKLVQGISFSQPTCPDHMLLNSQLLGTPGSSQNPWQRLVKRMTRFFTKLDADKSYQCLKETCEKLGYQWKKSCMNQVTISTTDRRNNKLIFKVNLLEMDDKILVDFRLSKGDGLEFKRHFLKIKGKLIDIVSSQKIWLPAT
OUTCOME_MEASURE: IC50

Past entries and their recorded results:
COMPOUND: COc1c(F)ccc(O[C@@H]2CC[C@H](N)C2)c1-c1cc(Nc2cnc(C#N)cn2)n[nH]1 [Example 1-26]
OBSERVED_VALUE: 10 to 100 nM
//
COMPOUND: N#Cc1cnc(Nc2cc(-c3ncccc3O[C@@H]3CC[C@H](N)C3)[nH]n2)cn1 [Example 1-63]
OBSERVED_VALUE: 10 to 100 nM
//
COMPOUND: N#Cc1cnc(Nc2cc(-c3c(OCC4CC4)cccc3O[C@H]3CC[C@H](N)CC3)[nH]n2)cn1 [Example 1-31]
OBSERVED_VALUE: 100 to 500 nM

Value lookup for IC50; key = N#Cc1cnc(Nc2cc(-c3c(F)cccc3O[C@H]3CCCC[C@@H](N)C3)[nH]n2)cn1 [Example 3-36]
≤ 10 nM
